# measured.on: glutathione-S-transferase (GST) tagged LXRbeta LBD (ligand binding domain) (Homo sapiens, UniProt P55055)
# Construct: purchased Invitrogen pv4658.pps
# protocol.notes: LanthaScreen TR-FRET Liver X Receptor Coactivator Assay, LXR beta-LBD
# Format: biochemical
# cond: potency (Inflection Point) of co-activator recruitment, TR-FRET; read-out: LXR beta IP
pEC50: −log10 of the molar value.
Would you please tag the item MET when its pEC50 is 7 or above, and NOT MET when it is below?

[[record]]
compound = "CC1CN(c2ncc(-c3ccc(C(=O)N(C)C)c(Cl)c3)cc2C#N)CCN1C(=O)OC(C)(C)C (stereo not shown)"
label_value = "MET"

[[record]]
compound = "CC(C)(C)OC(=O)N1CCN(c2ncc(-c3ccc(C(=O)N4CCCCC4)c(Cl)c3)cc2C#N)CC1"
label_value = "NOT MET"

[[record]]
compound = "CN(C)C(=O)c1ccc(-c2cnc(N3CCN(C(=O)C4(c5ccc(Cl)cc5Cl)CC4)CC3)c(C#N)c2)cc1Cl"
label_value = "MET"

[[record]]
compound = "CN(C)C(=O)c1ccc(-c2cnc(N3CCN(C(=O)OCc4cncs4)CC3)c(C#N)c2)cc1Cl"
label_value = "NOT MET"

[[record]]
compound = "Cc1cc(CC(=O)N2CCN(c3ncc(-c4ccc(C(=O)N(C)C)c(Cl)c4)cc3C#N)CC2)on1"
label_value = "NOT MET"

[[record]]
compound = "CN(C)C(=O)c1ccc(-c2ccc(N3CCN(C(=O)c4c(F)cccc4F)CC3)c(Cl)c2)cc1Cl"
label_value = "NOT MET"


Prompt line: Assess whether reported pEC50 for `CN(C)C(=O)c1ccc(-c2ccc(N3CCN(C(=O)[C@](O)(c4ccccc4)C(F)(F)F)CC3)cc2)cc1Cl` sits at 7 or higher.
Response line: NOT MET

Prompt line: // query: `CC(C)(C)OC(=O)N1CCN(c2ncc(-c3ccc(C(=O)N(CCCO)C4CC4)c(Cl)c3)cc2C#N)CC1`
Response line: NOT MET

----------
# measured.on: glutathione-S-transferase (GST) tagged LXRbeta LBD (ligand binding domain) (Homo sapiens)
# Construct: purchased Invitrogen pv4658.pps
# Sequence (P55055 222-460 limits assumed): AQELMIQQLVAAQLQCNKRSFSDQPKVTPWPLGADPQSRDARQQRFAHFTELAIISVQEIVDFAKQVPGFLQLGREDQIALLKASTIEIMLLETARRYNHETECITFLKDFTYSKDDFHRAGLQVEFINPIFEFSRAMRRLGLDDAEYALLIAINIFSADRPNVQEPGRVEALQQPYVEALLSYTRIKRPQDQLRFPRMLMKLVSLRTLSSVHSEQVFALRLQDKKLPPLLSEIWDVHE
# protocol.notes: LanthaScreen TR-FRET Liver X Receptor Coactivator Assay, LXR beta-LBD
# Format: biochemical
# cond: efficacy in relation to reference dual agonist T1317; read-out: LXR beta activity at max dose (%) (Emax)
Property: Emax; scope: individual compounds
Please give a number only; it is taken to be in %.

[[record]]
compound = "CC(C)(C)OC(=O)N1CCN(c2ncc(-c3ccc(C(=O)NCCCO)c(Cl)c3)cc2C#N)CC1 [Example 5-10]"
meas_value = 63

[[record]]
compound = "CN(C)C(=O)c1ccc(-c2ccc(N3CCN(C(=O)c4ccccc4C#N)CC3)cc2)cc1Cl [Example 4-2]"
meas_value = 93

[[record]]
compound = "CCC(O)(C(=O)N1CCN(c2ncc(-c3ccc(C(=O)N(C)C)c(Cl)c3)cc2C#N)CC1)C(F)(F)F (stereo not drawn) [Example 2-20]"
meas_value = 102


Prompt line: Requested read-out: Emax. Entry: CCC(C)S(=O)(=O)N1CCN(c2ncc(-c3ccc(C(=O)N(C)C)c(Cl)c3)cc2C#N)CC1 (stereo not drawn) [Example 1-4]
Response line: 81

Prompt line: Could you do the same for CN(C)C(=O)c1ccc(-c2cnc(N3CCN(C(=O)C4(c5ccccc5)CCC4)CC3)c(C#N)c2)cc1Cl [Example 2-23] , please?
Response line: 97

----------
# measured.on: glutathione-S-transferase (GST) tagged LXRbeta LBD (ligand binding domain) (Homo sapiens)
# Construct: purchased Invitrogen pv4658.pps
# Sequence (P55055 222-460 limits assumed): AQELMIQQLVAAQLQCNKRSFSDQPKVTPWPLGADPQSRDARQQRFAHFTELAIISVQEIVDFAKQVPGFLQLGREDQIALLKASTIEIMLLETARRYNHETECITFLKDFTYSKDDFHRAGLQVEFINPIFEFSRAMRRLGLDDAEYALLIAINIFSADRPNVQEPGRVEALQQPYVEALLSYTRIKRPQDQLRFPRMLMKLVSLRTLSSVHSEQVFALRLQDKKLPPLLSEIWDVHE
# protocol.notes: LanthaScreen TR-FRET Liver X Receptor Coactivator Assay, LXR beta-LBD
# Type: biochemical
# cond: potency (Inflection Point) of co-activator recruitment, TR-FRET; read-out: LXR beta IP
measured.parameter: EC50 (nM)
Field: numeric (nM). Do not append units.

[[record]]
smiles_representation = "CN(C)C(=O)c1c(Cl)cc(-c2cnc(N3CCN(C(=O)[C@](O)(c4ccccc4)C(F)(F)F)CC3)c(C#N)c2)cc1Cl"
measured_on = "glutathione-S-transferase (GST) tagged LXRbeta LBD (ligand binding domain) (Homo sapiens)"
measured_parameter = "EC50"
meas_value = 3

[[record]]
smiles_representation = "CN(CC#N)C(=O)c1ccc(-c2cnc(N3CCN(C(=O)OC(C)(C)C)CC3)c(C#N)c2)cc1Cl"
measured_on = "glutathione-S-transferase (GST) tagged LXRbeta LBD (ligand binding domain) (Homo sapiens)"
measured_parameter = "EC50"
meas_value = 170

[[record]]
smiles_representation = "CN(C)C(=O)c1ccc(-c2cnc(N3CCN(C(=O)C4(c5ccccc5F)CCCC4)CC3)c(C#N)c2)cc1Cl"
measured_on = "glutathione-S-transferase (GST) tagged LXRbeta LBD (ligand binding domain) (Homo sapiens)"
measured_parameter = "EC50"
meas_value = 15


Prompt line: Fill blank: measured EC50 of the molecule `CN(C)C(=O)c1ccc(-c2cnc(N3CCN(C(=O)[C@](C)(O)c4ccccc4)CC3)c(C#N)c2)cc1Cl` is ____.
Response line: 27

Prompt line: Try this molecule next: `CCc1cc(-c2cnc(N3CCN(C(=O)OC(C)(C)C)CC3)c(C#N)c2)ccc1C(=O)N(C)C`
Response line: 424

Prompt line: Try the molecule `CN(C)C(=O)c1ccc(-c2cnc(N3CCN(S(=O)(=O)c4c(Cl)cccc4C(F)(F)F)CC3)c(C#N)c2)cc1Cl`
Response line: 151

----------
# measured.on: glutathione-S-transferase (GST) tagged LXRalpha LBD (ligand binding domain) (Homo sapiens, UniProt Q13133)
# Construct: purchased Invitrogen pv4655
# Sequence (Q13133 209-447 limits assumed): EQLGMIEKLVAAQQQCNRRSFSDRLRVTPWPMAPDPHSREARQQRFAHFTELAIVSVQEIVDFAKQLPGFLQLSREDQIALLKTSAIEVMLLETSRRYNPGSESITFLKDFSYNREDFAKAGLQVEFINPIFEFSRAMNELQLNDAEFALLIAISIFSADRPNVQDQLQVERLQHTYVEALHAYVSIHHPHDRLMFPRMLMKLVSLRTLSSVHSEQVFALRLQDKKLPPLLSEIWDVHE
# protocol.notes: LanthaScreen TR-FRET Liver X Receptor Coactivator Assay, LXR alpha-LBD
# Format: biochemical
# cond: efficacy in relation to reference dual agonist T1317; read-out: LXR alpha activity at max dose (%) (Emax)
Recorded Emax values for a group of molecules are listed next.
In your response, put the unit directly after the numeric value.

Below, each entry is followed by its recorded Emax result.
[[record]]
molecule = "C#Cc1cc(-c2ccc(C(=O)N(C)C)c(Cl)c2)cnc1N1CCN(C(=O)OC(C)(C)C)CC1"
measured_parameter = "Emax"
meas_value = "49%"

[[record]]
molecule = "CN(C)C(=O)c1ccc(-c2ccc(N3CCN(C(=O)c4ccccc4C#N)CC3)cc2)cc1Cl"
measured_parameter = "Emax"
meas_value = "24%"

[[record]]
molecule = "CN(C)C(=O)c1ccc(-c2cnc(N3CCN(C(=O)OC(C)(C)C)CC3)c(C#N)c2)cc1C(F)(F)F"
measured_parameter = "Emax"
meas_value = "30%"

[[record]]
molecule = "CN(C)C(=O)c1ccc(-c2cnc(N3CCN(C(=O)C(O)(c4ccccc4Cl)C(F)(F)F)CC3)c(C#N)c2)cc1Cl (stereo not drawn)"
measured_parameter = "Emax"
meas_value = "18%"

[[record]]
molecule = "CC(C)(C)OC(=O)N1CCN(c2ncc(-c3ccc(C(=O)N4CCC(O)CC4)c(Cl)c3)cc2C#N)CC1"
measured_parameter = "Emax"
meas_value = "17%"


Please examine the following record next.
Prompt line: Param item = `CN(C)C(=O)c1ccc(-c2cnc(N3CCN(C(=O)C45CC(C4)C5)CC3)c(C#N)c2)cc1Cl` ; retrieve measured Emax.
Response line: 44%

----------
Listed here: items and their measured log10 of EC50.
# measured.on: glutathione-S-transferase (GST) tagged LXRbeta LBD (ligand binding domain) (Homo sapiens)
# protocol.notes: LanthaScreen TR-FRET Liver X Receptor Coactivator Assay, LXR beta-LBD
# cond: potency (Inflection Point) of co-activator recruitment, TR-FRET; read-out: LXR beta IP
Please interpret these as log10 of EC50 where EC50 is in nM.

[[record]]
compound = "CN(C)C(=O)c1ccc(-c2cnc(N3CCN(S(=O)(=O)C4CC4)CC3)c(C#N)c2)cc1Cl [Example 1-2]"
measured_parameter = "log10 of EC50"
meas_value = 2.73

[[record]]
compound = "CN(C)C(=O)c1ccc(-c2cnc(N3CCN(C(=O)C45CC(C4)C5)CC3)c(C#N)c2)cc1Cl [Example 2-4]"
measured_parameter = "log10 of EC50"
meas_value = 1.98

[[record]]
compound = "CN(CCc1ccncc1)C(=O)c1ccc(-c2cnc(N3CCN(C(=O)OC(C)(C)C)CC3)c(C#N)c2)cc1Cl [Example 5-27]"
measured_parameter = "log10 of EC50"
meas_value = 2.85

[[record]]
compound = "CN(C)C(=O)c1ccc(-c2ccc(N3CC4CCC3CN4C(=O)OC(C)(C)C)c(Cl)c2)cc1Cl (stereo not shown) [Example 4-3]"
measured_parameter = "log10 of EC50"
meas_value = 1.59

[[record]]
compound = "CN(C)C(=O)c1ccc(-c2cc(Cl)c(N3CCN(C(=O)c4ccccc4Cl)CC3)c(Cl)c2)cc1Cl [Example 4-6]"
measured_parameter = "log10 of EC50"
meas_value = 2.27

[[record]]
compound = "CN(C)C(=O)c1ccc(-c2ccc(N3CC4CCC(C3)N4C(=O)OC(C)(C)C)c(Cl)c2)cc1Cl [Example 8-10]"
measured_parameter = "log10 of EC50"
meas_value = 1.85

[[record]]
compound = "CN(CCO)C(=O)c1ccc(-c2cnc(N3CCN(C(=O)OC(C)(C)C)CC3)c(C#N)c2)cc1Cl [Example 5-1]"
measured_parameter = "log10 of EC50"
meas_value = 1.60

[[record]]
compound = "Cc1noc(C)c1CC(=O)N1CCN(c2ncc(-c3ccc(C(=O)N(C)C)c(Cl)c3)cc2C#N)CC1 [Example 2-14]"
measured_parameter = "log10 of EC50"
meas_value = 3.13

[[record]]
compound = "CN(C)C(=O)c1ccc(-c2cnc(N3CC4CCC(C3)N4C(=O)OC(C)(C)C)c(C#N)c2)cc1Cl [Example 8-7]"
measured_parameter = "log10 of EC50"
meas_value = 1.49

[[record]]
compound = "CN(C)C(=O)c1ccc(-c2cnc(N3CCN(C(=O)OCC4CC4(C)C)CC3)c(C#N)c2)cc1Cl (stereo not shown) [Example 3-13]"
measured_parameter = "log10 of EC50"
meas_value = 2.02


Prompt line: Can you look up the measured log10 of EC50 of CN(C)C(=O)c1ccc(-c2cnc(N3CCN(C(=O)C4(c5ccccc5)CCC4)CC3)c(C#N)c2)cc1Cl [Example 2-23] for me?
Response line: 1.63

Prompt line: Repeat for the following compound: CN(CCn1ccnc1)C(=O)c1ccc(-c2cnc(N3CCN(C(=O)OC(C)(C)C)CC3)c(C#N)c2)cc1Cl [Example 5-21]
Response line: 2.97

Prompt line: Again, but for CN(C)C(=O)c1ccc(-c2cnc(N3CCN(C(=O)OC(C)(C)C)CC3Cc3ccccc3)c(C#N)c2)cc1Cl (stereo not shown) [Example 8-13]
Response line: 1.26
